# System: NCI-H460 lung
# experiment: NCI-60 one-dose screen, 48 h
# conditions: 10 µM unless noted
Compounds without any hit were thinned out: in the full panel of roughly 83,000, 20% have a hit. Activity calls are given as the source filed them. How the source made its calls: active means growth percent below 10; inactive means the rest.
Log the outcome using a class from active, inactive

Can you look up the reported call for CC(C)CCC[C@@H](C)[C@H]1CC[C@H]2[C@@H]3CC=C4N(c5ccccc5)C(=O)CC[C@]4(C)[C@H]3CC[C@]12C for me?
inactive

Tell me the recorded outcome of this test for COc1cc(Nc2ncccc2C(=O)Nc2nc3ccc(F)cc3s2)cc(OC)c1OC .
inactive

What classification did O=[N+]([O-])c1cccc(C2c3ccccc3Oc3ccccc32)c1 end up with in this test?
inactive

Hey, what did the test say about c1cncc(-c2nc3ccccc3[nH]2)c1 ?
inactive

GET /call?item= COc1ccc(-c2c(C#N)cnc(N)c2-c2nc3cc(C)c(C)cc3[nH]2)cc1 returns the recorded outcome of this test.
inactive

Please share the test call associated with CC(C)CNCC(=O)Nc1ccc(Cc2ccc(NC(=O)CNCC(C)C)cc2)cc1 .
inactive

Please share the test call associated with COc1ccc(-c2nn(-c3cccc(Cl)c3)cc2-c2cc(-c3ccc(Br)cc3)[nH]c(=O)c2C#N)cc1 .
inactive

Could you check what this test reported for CC(Cc1cccc(C(F)(F)F)c1)NCCOC(=O)c1ccccc1 (configuration not stated) ?
inactive

What call does the record list for NC(CCCC(N)C(=O)c1ccccc1)C(=O)O (configuration not stated) ?
inactive

Assay result, entry COC(=O)c1ccc(NC(N)=NCC(C)(C)COc2ccc(C(F)(F)F)cc2)nc1 — outcome?
inactive

# fetch the recorded call for O=C1c2ccccc2OC=C(c2ccccc2)N1CCCCNc1ccc(F)cc1 here
inactive

Please state the recorded outcome for this compound: O=S1(=O)N(CCNc2nccc(-c3c(-c4cccc(O)c4)nc4sccn34)n2)CCN1Cc1ccccc1
inactive

# lookup: test call for CC(=O)N[C@@H](CNC(=O)c1cc(NC(=O)c2cc(NC(=O)c3cc(NC(=O)c4nccn4C)cn3C)cn2C)cn1C)CC(=O)Nc1cn(C)c(C(=O)Nc2cc(C(=O)Nc3cc(C(=O)Nc4cc(C(=O)NCCCN(C)CCCNC(=O)c5cccc(C(=O)O)c5)n(C)c4)n(C)c3)n(C)c2)n1
inactive

Outcome logged for C=C1C(=O)O[C@H]2[C@H]1CC/C(COC(=O)c1ccc(C#N)cc1)=C\CC[C@@]1(C)O[C@@H]21 in this assay:
inactive

Could you please tell me the result logged for COc1ccc2c(c1)OC(N)=C(C#N)C2c1ccc(F)c(F)c1 (configuration not stated) in this assay?
inactive

Per the assay record, what outcome was assigned to C[C@H]1C=C(C[C@@H](O)CC#CC#CCCCCC[C@@H](O)[C@H]2CCC(=O)O2)C(=O)O1 ?
inactive

Identify the outcome logged in this assay for the compound shown: N#CC(C#N)=C(C#N)c1c[nH]c2ccccc12
inactive

Per the records of this test, what outcome belongs to CC(=O)O[C@@H]1[C@@H](OC(C)=O)[C@H](OC(C)=O)CO[C@H]1Nc1cccc2ccccc12 ?
inactive

Write down the call the test reported for this compound. Item: Clc1ccc(OCc2nc(-c3ccccc3)n[nH]2)c(Cl)c1
inactive

I would be grateful if you could indicate the recorded call for COc1ccc(-c2nnc(SCC(=O)Nc3ccc(C(=O)/C=C/c4ccccc4)cc3)o2)cc1OC .
inactive

Entry CCn1c(SCC(=O)c2ccc(Br)cc2)nnc1-c1cc2c([nH]c3ccccc32)c(-c2cccc(O)c2)n1 : call = ?
inactive

Per the records of this test, what outcome belongs to Cc1ccc2oc(=O)cc(C3C(C#N)=C(N)Oc4c3ccc3ccccc43)c2c1 (configuration not stated) ?
inactive

Hello, I am checking results. What call was entered for CC1OC(n2c3ccccc3c3c4c(c5c6ccccc6[nH]c5c32)C(=O)N(CCN[C@@H]2CCC[C@H]2N)C4=O)CC(O)C1O (some centres not stated) ?
active

Any idea what this test logged for COc1cc(-c2nc3ccccc3s2)ccc1OCc1nc2n(n1)S(=O)(=O)c1ccccc1N2c1ccccc1 ?
inactive

Could you check what this test reported for CCOc1ccc(NC2=C(Cl)C(=O)c3ccccc3C2=O)cc1 ?
inactive

Check the results log: what was the call for COc1ccc(Cn2cc3c(c2-c2cc(OC)c(OC)c(OC)c2)CCc2c(CO)noc2-3)cc1 ?
active

Given COC(=O)Nc1nc2ccc(Sc3ccccc3)cc2[nH]1 , state the outcome it received in this test.
active

Hi, do you know how Nc1ncc(-c2ccc3ncnc(Nc4ccc(F)c(Cl)c4)c3c2)cn1 came out in this test?
inactive

Outcome logged for O=C(Nc1ccc(-n2ccc3c(NC(=O)c4ccccc4)nccc32)cc1)c1cccc(C(F)(F)F)c1 in this assay:
active

What is the recorded call for this compound in the test? COc1cc(/C=C2/Oc3cc4occc4c(OC)c3C2=O)ccc1OCC(=O)Nc1ccncc1
inactive

// outcome(item) with item = Cc1ccc[n+](CC(=O)c2cccc3ccccc23)c1
inactive

Record lookup: outcome of this test for CN1CCN(CC(O)COc2c(Br)c(Br)c(Br)c3c2OC(C)(C)C3)CC1 (configuration not stated) ?
inactive

Please share the test call associated with O=C(NCCNc1nccc(-c2c(-c3cccc(O)c3)nc3sccn23)n1)c1ccc(N2CCOCC2)c(C(F)(F)F)c1 .
inactive

For this compound, state the assay outcome: O=S(=O)(CCN1CCOCC1)Nc1cncc(-c2ccc3ncnc(Nc4ccc(F)c(Cl)c4)c3c2)c1
inactive

Test call for this compound, please: C#CCn1c(-c2cc(OC)c(OC)cc2Br)nc(-c2ccccc2)c1-c1ccccc1
inactive

For O=S(=O)(CCN1CCOCC1)Nc1cc(-c2ccc3ncnc(Nc4ccc(F)c(Cl)c4)c3c2)cnc1Cl , what call appears in the results of this test?
inactive

State the result this test recorded for O=C(CNc1cccnc1)Nc1ccc(C(=O)/C=C/c2ccc(Cl)cc2)cc1 .
inactive
